Sourced from patent US11406665B2

- target.desc: GDF15 (Homo sapiens, UniProt Q99988)
- Construct: purchased Abcam
- Sequence (Q99988 195-308): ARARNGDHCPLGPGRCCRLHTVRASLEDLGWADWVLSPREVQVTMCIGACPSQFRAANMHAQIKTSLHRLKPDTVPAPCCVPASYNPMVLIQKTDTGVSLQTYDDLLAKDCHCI
- procedure.text: ELISA binding of ligand to immobilized CLPTM1 peptide fragments
- protocol.conditions: biotinylated peptide immobilized at 1 μM; ligand 100 ng/ml; OD 450-620 measured
quantity.name: ELISA OD450 GDF15

item.sequence	observed.result
SGDYYPIIYFNDYWNLQKDYYPINESLA (listed as Homo sapiens) [SEQ ID NO: 40]	0.021
VSGDYYPIIYFNDYWNLQKDYYPINESLASLPLRVSFC (listed as Homo sapiens) [SEQ ID NO: 38]	0.061
PLDQYVKFDAVSGDYYPIIYFNDYWNLQKDYYPINESLA (listed as Homo sapiens) [SEQ ID NO: 39]	0.779
DTLMNLHVYISEHEHFTDFNATSALFWEQHDLVYGDWTSG (listed as Homo sapiens) [SEQ ID NO: 36]	0.023
SGDYYPIIYFNDYWNLQKDYYPINESLASLPLRVSFCPLS (listed as Homo sapiens) [SEQ ID NO: 32]	0.022
KALYRRLATVHMSRMINKYKG (listed as Homo sapiens) [SEQ ID NO: 17]	0.042

###

Overview of reported ELISA OD450 TGFb2 across a group of sequences:
- target.desc: TGFb2 (Homo sapiens, UniProt P61812)
- Construct: purchased Abcam
- Sequence (P61812 303-414 limits assumed): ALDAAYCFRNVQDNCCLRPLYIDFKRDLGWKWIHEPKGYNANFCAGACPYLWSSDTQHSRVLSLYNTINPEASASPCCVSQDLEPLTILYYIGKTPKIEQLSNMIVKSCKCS
- procedure.text: ELISA binding of ligand to immobilized CLPTM1 peptide fragments
- protocol.conditions: biotinylated peptide immobilized at 1 μM; ligand 100 ng/ml; OD 450-620 measured

item.sequence	ELISA OD450 TGFb2
SGDYYPIIYFNDYWNLQKDYYPINESLASLPLRVSFCPLS (listed as Homo sapiens) [SEQ ID NO: 32]	0.007
LDQYVKFDAVSGDYYPIIYFG (listed as Homo sapiens) [SEQ ID NO: 21]	0.002
SGDYYPIIYFNDYWNLQKDYYPINESLA (listed as Homo sapiens) [SEQ ID NO: 40]	0.009
YPINESLASLPLRVSFCPLSG (listed as Homo sapiens) [SEQ ID NO: 27]	0.005
VSGDYYPIIYFNDYWNLQKDYYPINESLASLPLRVSFC (listed as Homo sapiens) [SEQ ID NO: 38]	0.014
DTLMNLHVYISEHEHFTDFNATSALFWEQHDLVYGDWTSG (listed as Homo sapiens) [SEQ ID NO: 36]	0.006
KALYRRLATVHMSRMINKYKG (listed as Homo sapiens) [SEQ ID NO: 17]	0.013
LWRWQLYAAQSTKSPWNFLGDELYEQSDEEQDSVKVALLETNP (listed as Homo sapiens) [SEQ ID NO: 33]	0.008
TKSGFHPDPRQKALYRRLATVHMSRMINKYKRRRFQKTKN (listed as Homo sapiens) [SEQ ID NO: 37]	0.009
GDYYPIIYFNDYWNLQKDYYG (listed as Homo sapiens) [SEQ ID NO: 28]	0.019
